Test system: Plasmodium falciparum
Test: Antiplasmodial activity against chloroquine-resistant Plasmodium falciparum W2 after 48 hrs by YOYO-1 dye-based flow cytometry
Format: functional, organism-based
Conditions: W2, 48 h
assay.readout: IC50
Quick note: number first, unit second.

Give IC50 (Plasmodium falciparum) of the following compound: COc1cc(C2=NN(C(C)=O)C(c3ccccc3)C2)ccc1OCc1cn(CCCNc2ccnc3cc(Cl)ccc23)nn1 (configuration not stated)
77 nM

Give IC50 (Plasmodium falciparum) of the following compound: COc1cc(/C=C/C(=O)c2ccc(OCc3cn(CCCNc4ccnc5cc(Cl)ccc45)nn3)cc2)cc(OC)c1OC
5280 nM

Give IC50 (Plasmodium falciparum) of the following compound: C[C@@H]1CC[C@H]2[C@@H](C)C(=O)O[C@@H]3O[C@@]4(C)CC[C@@H]1[C@]32OO4
32.1 nM

Numbers sourced from ChEMBL document CHEMBL4130364.
